All figures here come from ChEMBL document CHEMBL4689842.

tested on: Fibroblast; assay: Multiplex assay against human fibroblast; type: toxicity, cell-based; settings: 24 h, 10 µM, compound concentration 10 uM, replicate 2
// FALSE strictly below 10% in Population Hoechst High Intensity Objects (%); TRUE otherwise

Observe how each entry below is paired with its result.
• CC(=O)c1cc(-c2cc(C(=O)NC3CC3)ccc2C)c2ncccn12 = FALSE
• Cc1nc(Cc2cccc(C(F)(F)F)c2)sc1-c1ccc(C(N)=O)nc1 [TP-024n] = FALSE
• N#Cc1cnc(Nc2cc(NC[C@H]3CNCCO3)c(C(F)(F)F)cn2)cn1 = TRUE
• Cc1cc2c(cc1N1C(=O)c3cccc4c(CCCO)ccc(c34)C1=O)n(C)c(=O)n2C = TRUE
• Cc1cn(-c2cc(NC(=O)c3ccc4c(c3)CN(c3cncnc3)C[C@@H]4C)cc(C(F)(F)F)c2)cn1 = TRUE
• CC(C)(C)c1cnc(CSc2cnc(NC(=O)C3CCNCC3)s2)o1 = TRUE

Next compound, please.
Exam item: Is Population Hoechst High Intensity Objects (%) at least 10%? Consider CNC(=O)c1nn(C)c2c1C(C)(C)Cc1cnc(Nc3ccc(N4CCN(C)CC4)cc3)nc1-2
Marked response: TRUE

====

system: HEK-293T; test: Multiplex assay against HEK293T; assay type: toxicity, cell-based; details: human, 48 h, 1 µM, compound concentration 1 uM, replicate 2;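 also: share of the cells with healthy nuclei that show this phenotype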
Each record is given criterion met if its reported Population Tubulin-Different-Phenotype (%) is strictly below 30%. Records at or above 30% are given criterion not met.

Observe how each entry below is paired with its result.
- CNc1oc(-c2cccc3ccccc23)nc1C#N: criterion met
- CC(C)N1CCC(C)(C)c2cc(C#Cc3ccc(C(=O)O)cc3)ccc21: criterion met
- Cc1cc2c(cc1N1C(=O)c3cccc4c(CCCO)ccc(c34)C1=O)n(C)c(=O)n2C: criterion met

Next molecule, please.
Exam item: Consider O=C(O)c1ccc2cc(-c3ccc(O)c(C45CC6CC(CC(C6)C4)C5)c3)ccc2c1 . Does its Population Tubulin-Different-Phenotype (%) lie strictly below 30%?
Marked response: criterion met

====

system: U2OS; assay: Multiplex assay against U2OS; assay type: toxicity, cell-based; details: human, 12 h, 10 µM, compound concentration 10 uM, replicate 2
MEASURED_ATTRIBUTE: Population Healthy Nuclei (%)
Express the result in % but write the number alone.

Here are 5 compounds together with their reported answers.
• O=C(O)c1ccc2c(c1)nc(Nc1cccc(Cl)c1)c1ccncc12 = 90
• CN(C)C/C=C/C(=O)Nc1cc2c(Nc3ccc(F)c(Cl)c3)ncnc2cc1O[C@H]1CCOC1.O=C(O)/C=C\C(=O)O.O=C(O)/C=C\C(=O)O [AFATINIB DIMALEATE] = 47
• CCC(=O)O[C@]1(C(=O)SCF)[C@H](C)C[C@H]2[C@@H]3C[C@H](F)C4=CC(=O)C=C[C@]4(C)[C@@]3(F)[C@@H](O)C[C@@]21C [FLUTICASONE PROPIONATE] = 81
• CC(=O)c1cc(-c2cc(C(=O)NC3CC3)ccc2C)c2ncccn12 = 84
• O=C(O)c1ccc2cc(-c3ccc(O)c(C45CC6CC(CC(C6)C4)C5)c3)ccc2c1 = 87

Exam item: Item CNc1oc(-c2cccc3ccccc23)nc1C#N has what recorded Population Healthy Nuclei (%)?
Marked response: 16

Exam item: Now consider CN(C)CCOc1ccc(-c2nc(-c3ccncc3)c(-c3ccc4c(c3)CC/C4=N\O)[nH]2)cc1 and answer again.
Marked response: 87

Exam item: Now consider CCn1c(-c2nonc2N)nc2cnc(Oc3cccc(NC(=O)c4ccc(OCCN5CCOCC5)cc4)c3)cc21 [GSK-269962A] and answer again.
Marked response: 57
